target: Tubulin purified from pig brains (Sus scrofa, UniProt P02550+P02554); construct: Tubulin is purified from pig brains according to published methods; experiment: Assessment of the inhibition of tubulin polymerization (turbidimetry at 350 nm); conditions: concentration which inhibits the rate of polymerization by 50%; tubulin 1 mg/ml, 37° C.; read-out: Inhibition of tubulin polymerization IC 50
Sequence (P02550 whole entry): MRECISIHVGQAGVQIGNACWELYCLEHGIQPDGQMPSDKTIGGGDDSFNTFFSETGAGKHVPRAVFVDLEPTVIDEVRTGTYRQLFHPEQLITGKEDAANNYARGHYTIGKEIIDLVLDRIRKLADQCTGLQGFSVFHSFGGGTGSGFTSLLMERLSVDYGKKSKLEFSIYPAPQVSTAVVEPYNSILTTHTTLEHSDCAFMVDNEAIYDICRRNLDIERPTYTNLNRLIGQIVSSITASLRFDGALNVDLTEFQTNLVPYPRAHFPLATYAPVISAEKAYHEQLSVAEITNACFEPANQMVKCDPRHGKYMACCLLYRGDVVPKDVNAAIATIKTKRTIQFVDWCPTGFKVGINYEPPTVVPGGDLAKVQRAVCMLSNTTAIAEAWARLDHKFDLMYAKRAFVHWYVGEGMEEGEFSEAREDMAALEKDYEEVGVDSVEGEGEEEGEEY
Sequence (P02554 whole entry): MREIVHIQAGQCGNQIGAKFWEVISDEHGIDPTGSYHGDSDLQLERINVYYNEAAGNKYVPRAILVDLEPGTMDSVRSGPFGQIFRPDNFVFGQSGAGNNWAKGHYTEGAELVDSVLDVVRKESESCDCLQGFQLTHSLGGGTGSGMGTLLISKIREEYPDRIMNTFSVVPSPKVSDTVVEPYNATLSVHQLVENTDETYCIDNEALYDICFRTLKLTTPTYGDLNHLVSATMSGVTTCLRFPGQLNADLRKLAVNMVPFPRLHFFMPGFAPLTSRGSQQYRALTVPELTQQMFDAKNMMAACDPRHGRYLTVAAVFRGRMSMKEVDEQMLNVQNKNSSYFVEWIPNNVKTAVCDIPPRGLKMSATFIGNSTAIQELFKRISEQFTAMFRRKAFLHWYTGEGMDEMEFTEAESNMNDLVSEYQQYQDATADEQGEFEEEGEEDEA
Group membership follows IC50 per the scheme group A: < 1000 nM; group B: ≥ 1000 nM and < 3000 nM; group C: ≥ 3000 nM

Worked set:
{"MOLECULE": "Cn1ccc(C(=O)N2CCN(c3cccc(CO)c3)CC2)c1-c1ccccc1", "CLASSIFICATION": "group C"}
{"MOLECULE": "COc1cc(OC)cc(N2CCN(C(=O)c3c[nH]cc3-c3ccccc3)CC2)c1", "CLASSIFICATION": "group B"}
{"MOLECULE": "CSc1nc(-c2ccccc2)c(C(=O)N2CCN(c3cccc(C#N)c3)CC2)[nH]1", "CLASSIFICATION": "group A"}

stdin: Where would `N#Cc1cccc(N2CCN(C(=O)c3cn(CCO)cc3-c3ccccc3)CC2)c1` land among the classes by reported IC50?
stdout: group A

stdin: Where would `O=C(c1cncn1-c1ccccc1)N1CCN(c2cccc(Cl)c2)CC1` land among the classes by reported IC50?
stdout: group B

stdin: Where would `NC(=O)c1cccc(N2CCN(C(=O)c3[nH]c(C(F)(F)F)nc3-c3ccccc3)CC2)c1` land among the classes by reported IC50?
stdout: group B
